protocol notes: Cholera quorum light production inducers, absence of autoinducers, BH1578 strain, confirmatory dose response (AID 651816)
assay context: V. cholerae BH1578 luxCDABE luminescence, 6 h; at 80 µM (top of the series)
As shown below, each of these molecules has a reported activation value.
Just the number in %, nothing appended.

INSERT INTO assay_data (chemical_structure, result_number) VALUES
  ('Fc1ccc(Cn2nnnc2NCc2ccc(N3CCCC3)cc2)cc1', 0.053),
  ('CCCn1nnnc1NCc1ccccc1Cl', -0.011);

input: Look up activation for this molecule: `O=C(Cc1ccc(-c2ccccc2)cc1)NC1CCCCC1`
output: 7.99

input: Look up activation for this molecule: `CS(=O)(=O)c1ccc(CC(=O)NC2CCCC2)cc1`
output: -0.008

input: Look up activation for this molecule: `CCc1ccccc1NCc1ccc(N2CCCC2)cc1`
output: 0.047

input: Look up activation for this molecule: `Cc1ccc(Cn2nnnc2NCc2ccc(N3CCCC3)cc2)cc1`
output: 0.022

input: Look up activation for this molecule: `O=C(Cc1ccccc1Cl)NC1CCCC1`
output: -0.009

###

protocol notes: Cholera quorum light production inducers, absence of autoinducers, BH1578 strain, confirmatory dose response (AID 651816)
assay context: V. cholerae BH1578 luxCDABE luminescence, 6 h; at 80 µM (top of the series)
reported endpoint: activation (%)
Just the number in %, nothing appended.

Answered examples (2):
INSERT INTO measurements (chemical_structure, readout_units, result_number) VALUES
  ('O=C(NCc1ccc(-c2ccccc2)cc1)C1CCCC1', '%', 0.19),
  ('CCn1nnnc1NCc1ccccc1N1CCCC1', '%', -0.011);

input: Look up activation for this molecule: `CCn1nnc(CCc2ccc(N3CCCC3)cc2)n1`
output: 0.033

input: Look up activation for this molecule: `CCn1nccc1/N=C/c1ccc(N2CCCC2)cc1`
output: 0.02

input: Look up activation for this molecule: `COc1ccc(CC(=O)NC2CCCC2)cc1`
output: 0.353

input: Look up activation for this molecule: `CCn1nccc1NCc1ccc(N2CCCC2)cc1`
output: 0.056

input: Look up activation for this molecule: `Cc1ccccc1CC(=O)NC1CCCC1`
output: 0.039

input: Look up activation for this molecule: `O=C(Cc1cccc(OC(F)(F)F)c1)NC1CCCC1`
output: 0.099

input: Look up activation for this molecule: `CCn1nnnc1NCc1cccc(OC)c1`
output: 3.31

input: Look up activation for this molecule: `c1ccc(-n2nnnc2NCc2ccc(N3CCCC3)cc2)cc1`
output: 0.051

input: Look up activation for this molecule: `O=C(Cc1ccccc1OC(F)(F)F)NC1CCCC1`
output: -0.008

###

As shown below, each of these compounds has a reported activation value.
protocol notes: Cholera quorum light production inducers, absence of autoinducers, BH1578 strain, confirmatory dose response (AID 651816)
assay context: V. cholerae BH1578 luxCDABE luminescence, 6 h; at 80 µM (top of the series)
Just the number in %, nothing appended.

INSERT INTO results (chemical_structure, result_number) VALUES
  ('CCn1nnc(NCc2ccc(C)cc2)n1', 0.015),
  ('c1ccc(Cn2nnc(NCc3ccc(N4CCCC4)cc3)n2)cc1', 0.04),
  ('O=C(Cc1cccc(F)c1)NC1CCCC1', 0.665);

input: Look up activation for this compound: `O=C(Cc1ccccc1C(F)(F)F)NC1CCCC1`
output: -0.032

input: Look up activation for this compound: `c1ccc(Cn2nnnc2NCc2ccc(N3CCCC3)cc2)cc1`
output: 0.055

input: Look up activation for this compound: `O=C(Cc1ccccc1F)NC1CCCC1`
output: 0.028

Just for reference, PubChem BioAssay AID651816 is where these values come from.
